- Tested Target: T1, cynomolgus monkey BCMA (cynomolgus monkey, UniProt A0A2K5UD97 1-53)
- T1 construct: Soluble analyte in SPR; construct not described; also called cyBCMA; Cyno BCMA
- T1 sequence (A0A2K5UD97 entry or part of it): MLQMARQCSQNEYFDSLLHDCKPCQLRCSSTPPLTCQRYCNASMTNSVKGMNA
- Procedure Details: SPR, IgG immobilised, 25 C
Quantity Kind: kon
Please append the unit to your numeric answer.

1. L1.LGF/L3.PY/H3.AP (antibody, V domains shown, IgG) VH: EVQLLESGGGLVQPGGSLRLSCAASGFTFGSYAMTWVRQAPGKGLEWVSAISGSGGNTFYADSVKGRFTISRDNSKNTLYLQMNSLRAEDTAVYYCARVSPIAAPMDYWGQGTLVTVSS VL: EIVLTQSPGTLSLSPGERATLSCRASQSLGSFYLAWYQQKPGQAPRLLIYGASSRATGIPDRFSGSGSGTDFTLTISRLEPEDFAVYYCQHYPYPPSFTFGQGTKVEIK | 364000 M⁻¹ s⁻¹

Query: kon; subject: L1.LGF/L3.PY/H3.AQ (antibody, V domains shown, IgG) VH: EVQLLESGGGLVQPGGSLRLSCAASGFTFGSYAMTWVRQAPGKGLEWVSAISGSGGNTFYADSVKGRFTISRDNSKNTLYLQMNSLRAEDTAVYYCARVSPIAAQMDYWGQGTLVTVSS VL: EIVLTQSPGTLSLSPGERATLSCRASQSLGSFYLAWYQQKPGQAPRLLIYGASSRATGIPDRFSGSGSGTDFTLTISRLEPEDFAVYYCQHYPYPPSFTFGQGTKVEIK
1e+06 M⁻¹ s⁻¹
